The molecules listed here are annotated with their pIC50.
- Tested on: NCI-H1770;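 also: growth inhibition of NCI-H1770 cells determined with a viability readout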
- experiment_description: cells
- Assay type: functional, cell-based
- experimental_setup: Homo sapiens
- Description: SANGER: Inhibition of human NCI-H1770 cell growth in a cell viability assay.
Scale: negative log10 of molar concentration, which is what pIC50 denotes.

- molecule: "COc1cc([C@@H]2c3cc4c(cc3[C@@H](O[C@@H]3O[C@@H]5CO[C@@H](C)O[C@H]5[C@H](O)[C@H]3O)[C@H]3COC(=O)[C@H]23)OCO4)cc(OC)c1O [ETOPOSIDE]"
  test_target: "NCI-H1770"
  test_value: 5.41

Now look at this one.
Inquiry: Query pIC50 for CC(=O)O[C@@]12CO[C@@H]1C[C@H](O)[C@@]1(C)C(=O)[C@H](O)C3=C(C)[C@@H](OC(=O)[C@H](O)[C@@H](NC(=O)OC(C)(C)C)c4ccccc4)C[C@@](O)([C@@H](OC(=O)c4ccccc4)[C@H]21)C3(C)C [DOCETAXEL]
Reply text: 8.47

* * *

- Tested on: Huh-7;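 also: HuH-7 cell growth inhibition, read out with a cell viability assay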
- experiment_description: cells
- Type: functional, cell-based, Homo sapiens
- experimental_setup: Homo sapiens, Huh-7
- Description: SANGER: Inhibition of human HuH-7 cell growth in a cell viability assay.
property_label: IC50

- compound: "COc1ccc(C2=N[C@@H](c3ccc(Cl)cc3)[C@@H](c3ccc(Cl)cc3)N2C(=O)N2CCNC(=O)C2)c(OC(C)C)c1 [NUTLIN-3]"
  IC50: "> 8 µM"
- compound: "Nc1ccn([C@@H]2O[C@H](CO)[C@@H](O)[C@@H]2O)c(=O)n1 [CYTARABINE]"
  IC50: "> 2 µM"
- compound: "Cc1ccc(Nc2nccc(N(C)c3ccc4c(C)n(C)nc4c3)n2)cc1S(N)(=O)=O [PAZOPANIB]"
  IC50: "7.69 µM"

Lab note: next compound to report on.
Inquiry: Indicate its recorded IC50; the compound in question is CN(c1ncccc1CNc1nc(Nc2ccc3c(c2)CC(=O)N3)ncc1C(F)(F)F)S(C)(=O)=O [PF-00562271]
Reply text: > 2.56 µM

* * *

Some molecules, each annotated with its measured pIC50.
- Test system: SK-N-DZ
- experiment_description: cells
- Type: functional, cell-based, Homo sapiens
- experimental_setup: Homo sapiens, SK-N-DZ
- Description: SANGER: Inhibition of human SK-N-DZ cell growth in a cell viability assay.
pIC50: −log10 of the molar value.

- query_smiles: "CCOc1nc(NC(=O)Cc2cc(OC)ccc2OC)cc(N)c1C#N"
  test_target: "SK-N-DZ"
  property_label: "pIC50"
  test_value: "< 5.00"
- query_smiles: "CCc1nc(N)nc(N)c1-c1ccc(Cl)cc1"
  test_target: "SK-N-DZ"
  property_label: "pIC50"
  test_value: "< 4.70"
- query_smiles: "CNC(=O)c1cc(Oc2ccc(NC(=O)Nc3ccc(Cl)c(C(F)(F)F)c3)cc2)ccn1"
  test_target: "SK-N-DZ"
  property_label: "pIC50"
  test_value: "< 5.40"
- query_smiles: "O=C(NOCC1CC1)c1ccc(F)c(F)c1Nc1ccc(I)cc1Cl"
  test_target: "SK-N-DZ"
  property_label: "pIC50"
  test_value: "< 5.00"
- query_smiles: "Cn1cc(C2=C(c3ccc(Cl)cc3Cl)C(=O)NC2=O)c2ccccc21"
  test_target: "SK-N-DZ"
  property_label: "pIC50"
  test_value: "< 5.00"

Inquiry: Determine reported pIC50 for CCC(=O)N1CCN(c2ccc(-n3c(=O)ccc4cnc5ccc(-c6cnc7ccccc7c6)cc5c43)cc2C(F)(F)F)CC1 ; test system: SK-N-DZ.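 Also: growth inhibition of the cancer cell line, read out through a viability assay.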
Reply text: 6.83

Inquiry: With SK-N-DZ as the test system, provide measured pIC50 for this molecule: CO[C@H]1C[C@@H]2CC[C@@H](C)[C@@](O)(O2)C(=O)C(=O)N2CCCC[C@H]2C(=O)O[C@H]([C@H](C)C[C@@H]2CC[C@@H](O)[C@H](OC)C2)CC(=O)[C@H](C)/C=C(\C)[C@@H](O)[C@@H](OC)C(=O)[C@H](C)C[C@H](C)/C=C/C=C/C=C/1C
Reply text: < 7.00
